All figures here come from paper PMC11807261.

EXPERIMENTAL SYSTEM: Mtb GlnA1 (Mycobacterium tuberculosis)
Construct: His6 (N); made in house; host or cells: E. coli BL21(DE3)
Sequence (P9WN39 whole entry): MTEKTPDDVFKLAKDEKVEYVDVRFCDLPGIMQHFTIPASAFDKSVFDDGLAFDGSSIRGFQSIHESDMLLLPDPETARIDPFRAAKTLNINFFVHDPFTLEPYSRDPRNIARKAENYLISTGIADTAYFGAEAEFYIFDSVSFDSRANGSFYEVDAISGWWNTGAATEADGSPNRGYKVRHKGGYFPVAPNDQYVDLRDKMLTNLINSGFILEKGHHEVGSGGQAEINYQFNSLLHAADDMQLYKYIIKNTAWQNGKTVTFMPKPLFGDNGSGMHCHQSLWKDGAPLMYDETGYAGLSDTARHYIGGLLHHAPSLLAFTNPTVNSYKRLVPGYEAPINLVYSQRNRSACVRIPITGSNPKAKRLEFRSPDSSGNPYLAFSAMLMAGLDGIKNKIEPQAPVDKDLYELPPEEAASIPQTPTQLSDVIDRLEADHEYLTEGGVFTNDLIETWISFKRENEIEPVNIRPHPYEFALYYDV
ASSAY METHOD TEXT: biochemical
SETTINGS: compounds directly from MMV Pathogen Box library plates; read-out: IC50 (μM), library
OBSERVABLE: IC50 (µM)
Lab book: enter the figure in µM, no units written.

The following molecules have reported results that may help.
INSERT INTO results (molecule, numeric_result) VALUES
  ('CC(C)(CN)c1nc(-c2ccc(Cl)c(O)c2)c(-c2ccnc(N)n2)[nH]1 [MMV030734]', 1.38),
  ('Cc1ccc(NC(=O)c2nc[nH]c2C(=O)Nc2nc3ccccc3[nH]2)c(C)c1 [MMV011903]', 0.78),
  ('Cc1nc(-c2ccccn2)nc(N2CCC(Cc3ccccc3)C2)c1Cl (stereo not shown) [MMV659004]', 1.14);

For c1ccc(-c2nc(NC3CCCCC3)cc(C3CC3)n2)nc1 [MMV021013] the molecule record lists IC50 as 0.69

----------
EXPERIMENTAL SYSTEM: Mtb GlnA1 (Mycobacterium tuberculosis)
Construct: His6 (N); made in house; host or cells: E. coli BL21(DE3)
ASSAY METHOD TEXT: biochemical
SETTINGS: compounds resupplied from MMV; mean ± SE (n=3); read-out: IC50 (μM), resupply
Entries and their measured IC50 follow.
Lab book: enter the figure in µM, no units written.

The following compounds have reported results that may help.
INSERT INTO assay_data (compound, experimental_system, numeric_result) VALUES
  ('CC(C)(CN)c1nc(-c2ccc(Cl)c(O)c2)c(-c2ccnc(N)n2)[nH]1', 'Mtb GlnA1 (Mycobacterium tuberculosis)', 1.84),
  ('Cc1ccc(NC(=O)c2nc[nH]c2C(=O)Nc2nc3ccccc3[nH]2)c(C)c1', 'Mtb GlnA1 (Mycobacterium tuberculosis)', 1.63),
  ('c1ccc(-c2nc(NC3CCCCC3)cc(C3CC3)n2)nc1', 'Mtb GlnA1 (Mycobacterium tuberculosis)', 0.69);

Turning now to a further compound:
For Cc1nc(-c2ccccn2)nc(N2CCC(Cc3ccccc3)C2)c1Cl (stereo not shown) the compound record lists IC50 as 0.66

----------
ASSAY METHOD TEXT: Cytotoxicity (CC50)
Assay type: cell-based
SETTINGS: African green monkey, Vero E6 cells
OBSERVABLE: CC50 (µM)
Lab book: enter the figure in µM, no units written.

For C[C@]1(O)C[C@@H](c2nc(-c3ccc4ccc(-c5ccccc5)nc4c3)c3c(N)nccn32)C1 the compound record lists CC50 as 67.5
